# System: T24
# protocol_summary: MTT cell viability assay
# Type: cell-based, human
# run_parameters: read-out: Cisplatin IC50 ± SD; control: untreated 48 h, then cisplatin 72 h; listed as cisplatin
readout_label: pIC50
Formally, pIC50 is defined as -log10 of the concentration c, with c in mol/L.

Query block: Specify reported pIC50 for the compound shown: N.N.[Cl][Pt][Cl] [Cisplatin, cisplatin]
Result block: 5.49

###

# assay_target: HDAC 8 (Homo sapiens)
# Sequence (Q9BY41 whole entry): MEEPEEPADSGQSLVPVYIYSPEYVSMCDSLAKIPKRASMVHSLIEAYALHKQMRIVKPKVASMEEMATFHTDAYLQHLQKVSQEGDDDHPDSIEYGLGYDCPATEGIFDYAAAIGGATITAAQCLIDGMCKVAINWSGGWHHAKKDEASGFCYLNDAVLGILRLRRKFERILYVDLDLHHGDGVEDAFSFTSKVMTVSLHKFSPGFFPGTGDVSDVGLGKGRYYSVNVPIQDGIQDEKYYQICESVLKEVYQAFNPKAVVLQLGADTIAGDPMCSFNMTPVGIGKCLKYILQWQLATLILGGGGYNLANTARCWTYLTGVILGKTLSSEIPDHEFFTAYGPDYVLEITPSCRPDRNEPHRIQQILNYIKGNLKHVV
# protocol_summary: Enzyme HDAC inhibition assay
# run_parameters: recombinant enzyme, Boc-Lys-(Tfa)-AMC; read-out: HDAC8 IC50 ± SD
readout_label: IC50 (µM)
Unit µM implied. Number only.

Query block: Specify reported IC50 for the compound shown: CCc1c(C(=O)Nc2cc(/C=C/C(=O)NO)ccc2OC)[nH]c(C)c1C(C)=O [compound 20]
Result block: 6.03

###

# Test system: HBLAK
# protocol_summary: MTT cell viability assay, non-cancer cell line
# Assay type: cell-based, human
# run_parameters: Homo sapiens; MTT, 72 h, compound alone; read-out: IC50 ± SD
readout_label: pIC50
Formally, pIC50 is defined as -log10 of the concentration c, with c in mol/L.

Query block: Specify reported pIC50 for the compound shown: Nc1ccccc1NC(=O)c1ccc(CNC(=O)OCc2cccnc2)cc1 [Entinostat, entinostat]
Result block: 5.84

###

# Tested on: HEK293
# protocol_summary: MTT cell viability assay, non-cancer cell line
# Format: cell-based, human
# run_parameters: MTT, 72 h, compound alone; read-out: IC50 ± SD
readout_label: pIC50
Formally, pIC50 is defined as -log10 of the concentration c, with c in mol/L.

Query block: Under HEK293: report pIC50 of N.N.[Cl][Pt][Cl] [Cisplatin, cisplatin] .
Result block: 5.47

###

# Test system: T24 LTT
# protocol_summary: MTT cell viability assay
# Assay type: cell-based, human
# run_parameters: Homo sapiens; MTT, 72 h, compound alone; read-out: IC50 ± SD
Kindly state IC50 for each of the entries shown.
Unit nM implied. Number only.

Query block: Specify reported IC50 for the compound shown: CCc1c(C(=O)Nc2cc(/C=C/C(=O)NO)ccc2OC)[nH]c(C)c1C(C)=O [compound 20]
Result block: 4660

Query block: Specify reported IC50 for the compound shown: Cc1sc2c(c1C)C(c1ccc(Cl)cc1)=NC(CC(=O)OC(C)(C)C)c1nnc(C)n1-2 (stereo not drawn) [JQ1]
Result block: 600

Query block: Specify reported IC50 for the compound shown: Nc1ccccc1NC(=O)c1ccc(CNC(=O)OCc2cccnc2)cc1 [Entinostat, entinostat]
Result block: 1380

###

# Tested on: HBLAK
# protocol_summary: MTT cell viability assay, non-cancer cell line
# Format: cell-based, human
# run_parameters: MTT, 72 h, compound alone; read-out: IC50 ± SD
readout_label: pIC50
Formally, pIC50 is defined as -log10 of the concentration c, with c in mol/L.

Query block: Specify reported pIC50 for the compound shown: N.N.[Cl][Pt][Cl] [Cisplatin, cisplatin]
Result block: 5.77

###

# Test system: J82
# protocol_summary: MTT cell viability assay
# Assay type: cell-based, human
# run_parameters: read-out: Cisplatin IC50 ± SD; control: untreated 48 h, then cisplatin 72 h; listed as cisplatin
readout_label: IC50 (nM)
Unit nM implied. Number only.

Query block: Specify reported IC50 for the compound shown: N.N.[Cl][Pt][Cl] [Cisplatin, cisplatin]
Result block: 2980

###

# Tested on: J82
# protocol_summary: MTT cell viability assay
# Type: cell-based, human
# run_parameters: MTT, 72 h, compound alone; read-out: IC50 ± SD
# Protocol: The cell viability for determination of IC50 values and synergism studies was analyzed by MTT assay as previously described. […] For preincubation experiments, 1600 c/w (cells per well) for J82 and 1200 c/w for J82 cisR were used. […] The formazan was dissolved in 75 µL DMSO, and the absorption was measured at 540 nm and 690 nm with a microplate reader (ThermoFisher Multiskan, Thermo Scientific, Wesel, Germany).
readout_label: IC50 (µM)
Unit µM implied. Number only.

Query block: Specify reported IC50 for the compound shown: Cc1sc2c(c1C)C(c1ccc(Cl)cc1)=NC(CC(=O)OC(C)(C)C)c1nnc(C)n1-2 (stereo not drawn) [JQ1]
Result block: 18.8

Query block: Specify reported IC50 for the compound shown: N.N.[Cl][Pt][Cl] [Cisplatin, cisplatin]
Result block: 1.87

Query block: Specify reported IC50 for the compound shown: Nc1ccccc1NC(=O)c1ccc(CNC(=O)OCc2cccnc2)cc1 [Entinostat, entinostat]
Result block: 10.4

###

# Tested on: J82
# protocol_summary: MTT cell viability assay
# Type: cell-based, human
# run_parameters: Homo sapiens, J82, control of the 48 h preincubation scheme, compound 72 h; read-out: IC50 ± SD
# Method: The cell viability for determination of IC50 values and synergism studies was analyzed by MTT assay as previously described. […] For preincubation experiments, 1600 c/w (cells per well) for J82 and 1200 c/w for J82 cisR were used. […] The formazan was dissolved in 75 µL DMSO, and the absorption was measured at 540 nm and 690 nm with a microplate reader (ThermoFisher Multiskan, Thermo Scientific, Wesel, Germany).
readout_label: IC50 (µM)
Unit µM implied. Number only.

Query block: Specify reported IC50 for the compound shown: `Nc1ccccc1NC(=O)c1ccc(CNC(=O)OCc2cccnc2)cc1`
Result block: 9.59

Query block: Specify reported IC50 for the compound shown: Cc1sc2c(c1C)C(c1ccc(Cl)cc1)=NC(CC(=O)OC(C)(C)C)c1nnc(C)n1-2 (centres unmarked)
Result block: 21.6
